# target.entity: human B1 (Homo sapiens, UniProt P46663)
# Sequence (P46663 whole entry): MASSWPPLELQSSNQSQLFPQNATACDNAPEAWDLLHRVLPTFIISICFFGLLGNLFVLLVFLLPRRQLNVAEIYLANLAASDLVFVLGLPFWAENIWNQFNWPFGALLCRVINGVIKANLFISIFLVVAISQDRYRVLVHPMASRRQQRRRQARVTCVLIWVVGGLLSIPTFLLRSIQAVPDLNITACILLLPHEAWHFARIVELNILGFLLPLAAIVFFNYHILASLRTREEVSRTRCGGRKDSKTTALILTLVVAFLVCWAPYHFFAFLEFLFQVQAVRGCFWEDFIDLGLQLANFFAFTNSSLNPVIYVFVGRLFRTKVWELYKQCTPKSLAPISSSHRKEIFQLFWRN
# method: Calcium flux assay for Bradykinin B1 antagonist, CHO-K1 cell line expressing human B1
# condition.info: CHO-K1 cells expressing human B1, agonist Lys-(Des-Arg)-Bradykinin, read-out: Potency (IC50 value against human B1)
Structures can show the parent of a compound that is named as a salt.
reported.property: IC50

These solved cases illustrate the format of a correct answer.
{"columns": ["compound", "result"],
 "data": [
  ["COc1cc(C)c(S(=O)(=O)N(Cc2nc(C(=O)N(C)Cc3ccc(CN4CC(O)C(O)C4)cc3)co2)C2CC2)c(C)c1 (stereo not shown) [Ex 189]", "< 0.01 µM"],
  ["COc1cc(C)c(S(=O)(=O)N(C)Cc2nnc(C(=O)N(C)Cc3ccc(CN4CCC(OC)C4)cc3)o2)c(C)c1 (stereo not shown) [Ex 282]", "0.1 to 1 µM"],
  ["Cc1cc(S(=O)(=O)N(Cc2nc(C(=O)N(C)Cc3ccc(CN4CCCC4)cc3)co2)C2CC2)c(C)cc1Cl [Ex 218, trifluoroacetate]", "0.1 to 1 µM"]
]}

Please turn your attention to the following entry.
Problem: Can you look up the measured IC50 of [2H]C([2H])([2H])N(Cc1nnc(C(=O)N2CCN(CC3CCN(C)CC3)CC2)o1)S(=O)(=O)c1c(C)cc(OC)cc1C [Ex 291, trifluoroacetate] for me?
Result: 0.1 to 1 µM
